Each entry below carries its reported MIC.
test system: Streptococcus pyogenes; assay: Antibacterial activity against Streptococcus pyogenes after 24 hrs by microdilution method; assay type: functional

Observe how each entry below is paired with its result.
CC[C@H]1OC(=O)[C@H](C)[C@@H](O)[C@H](C)[C@@H](O[C@@H]2O[C@H](C)C[C@H](N(C)C)[C@H]2O)[C@](C)(O)C[C@@H](C)CN(C(=O)Nc2cccc(C(F)(F)F)c2)[C@H](C)[C@@H](O)[C@]1(C)O > 64 µg/mL
CCNC(=O)N1C[C@H](C)C[C@@](C)(O)[C@H](O[C@@H]2O[C@H](C)C[C@H](N(C)C)[C@H]2O)[C@@H](C)[C@H](O)[C@@H](C)C(=O)O[C@H](CC)[C@@](C)(O)[C@H](O)[C@H]1C > 64 µg/mL

Per the records, this molecule ( `CC[C@H]1OC(=O)[C@H](C)C2O[C@@](C)(C[C@@H](C)CN(C(=O)NC(C)C)[C@H](C)[C@@H](O)[C@]1(C)O)[C@H](O[C@@H]1O[C@H](C)C[C@H](N(C)C)[C@H]1O)[C@H]2C` ) has MIC equal to > 64 µg/mL
